Values compiled from patent US9701672B2.

Target: human MGAT-2 (Homo sapiens (Human))
Test: MGAT LCMS assay (h-MGAT LCMS)
Assay type: biochemical
Settings: human MGAT2 membranes expressed in Sf9 cells; 100 μM 2-oleoylglycerol, 15 μM oleoyl-coenzyme A
measured_parameter: IC50 (nM)

In the examples that follow, each entry is paired with its recorded IC50.
O=C1N[C@@](c2ccc(OCCCC(F)(F)F)cc2)(C(F)(F)F)CC(c2ccn(C3CC3)n2)=C1c1nnn[nH]1 [Example 17] :: 16.6
N#CC1=C(c2ccc(C3CC3)s2)C[C@](c2ccc(OCCCC(F)(F)F)cc2)(C(F)(F)F)NC1=O [Example 74] :: 15
CC(C)Cn1ccc(C2=C(c3nnn[nH]3)C(=O)N[C@@](c3ccc(OCCCCCC(F)(F)F)cc3)(C(F)(F)F)C2)n1 [Example 31] :: 61.9

I. CC(C)n1ccc(C2=C(c3nnn[nH]3)C(=O)N[C@@](c3ccc(OCCCC(F)(F)F)cc3F)(C(F)(F)F)C2)n1 [Example 39]
II. O=C1N[C@@](c2ccc(OCCCC(F)(F)F)cc2F)(C(F)(F)F)CC(c2ccn(CC3CC3)n2)=C1c1nnn[nH]1 [Example 52]
III. CC(C)n1cc(C2=C(c3nnn[nH]3)C(=O)N[C@@](c3ccc(OCCCCCC(F)(F)F)cc3)(C(F)(F)F)C2)c2ccccc21 [Example 34]
IV. Cc1ccc(C2=C(c3nnn[nH]3)C(=O)N[C@@](c3ccc(OCCCC(F)(F)F)cc3)(C(F)(F)F)C2)s1 [Example 2]
Q. Rank order required: IC50, descending. Write out the labels following the order that was asked for.
A. III, IV, I, II

====

Target: human MGAT-2 (Homo sapiens (Human))
Assay: MGAT LCMS assay (h-MGAT LCMS)
Type: biochemical
Conditions: human MGAT2 membranes expressed in Sf9 cells; 100 μM 2-oleoylglycerol, 15 μM oleoyl-coenzyme A
pIC50: −log10 of the molar value.
measured_parameter: pIC50

In the examples that follow, each entry is paired with its recorded pIC50.
CC(C)n1ccc(C2=C(c3nnn[nH]3)C(=O)N[C@@](c3ccc(OCCCCCC(F)(F)F)cc3)(C(F)(F)F)C2)n1 :: 7.36
O=C1N[C@@](c2ccc(OCCCC(F)(F)F)cc2Cl)(C(F)(F)F)CC(c2ccn(C3CC3)n2)=C1c1nnn[nH]1 :: 6.92

1. CN(C)c1cnc(C2=C(c3nnn[nH]3)C(=O)N[C@@](c3ccc(OCCCC(F)(F)F)cc3)(C(F)(F)F)C2)s1
2. CN(C)c1ccc(C2=C(c3nnn[nH]3)C(=O)N[C@@](c3ccc(OCCCC(F)(F)F)cc3)(C(F)(F)F)C2)cn1
Q. Could you tell me which of 1 and 2 has the lower pIC50 reading? Your answer should be the label of the entry you select.
A. 2
(2: 7.14, 1: 7.94)

a. O=C1N[C@@](c2ccc(OCCCCC(F)(F)F)cc2)(C(F)(F)F)CC(c2ccc(C3CC3)s2)=C1c1nnn[nH]1
b. CCn1ccc(C2=C(c3nnn[nH]3)C(=O)N[C@@](c3ccc(OCCCCCC(F)(F)F)cc3)(C(F)(F)F)C2)n1
c. Cc1ccc(C2=C(C#N)C(=O)N[C@@](c3ccc(OCCCC(F)(F)F)cc3)(C(F)(F)F)C2)s1
Q. Rank ascending by pIC50. Write out the labels following the order that was asked for.
A. c, b, a
(c: 7.01, b: 7.28, a: 7.82)

====

Target: human MGAT-2 (Homo sapiens (Human), UniProt Q3SYC2)
Sequence (Q3SYC2 whole entry): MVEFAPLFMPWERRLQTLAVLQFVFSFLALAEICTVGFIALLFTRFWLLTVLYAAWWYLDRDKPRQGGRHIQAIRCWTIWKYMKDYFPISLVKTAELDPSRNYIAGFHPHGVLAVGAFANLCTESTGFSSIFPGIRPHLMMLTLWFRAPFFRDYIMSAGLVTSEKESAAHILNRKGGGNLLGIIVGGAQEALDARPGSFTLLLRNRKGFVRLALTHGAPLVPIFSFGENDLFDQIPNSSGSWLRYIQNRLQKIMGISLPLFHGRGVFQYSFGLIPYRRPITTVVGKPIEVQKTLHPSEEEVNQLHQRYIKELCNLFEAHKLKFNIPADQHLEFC
Test: MGAT LCMS assay (h-MGAT LCMS)
Type: biochemical
Conditions: human MGAT2 membranes expressed in Sf9 cells; 100 μM 2-oleoylglycerol, 15 μM oleoyl-coenzyme A
measured_parameter: IC50 (nM)

In the examples that follow, each entry is paired with its recorded IC50.
CCCCCCC#C[C@]1(C(F)(F)F)CC(c2ccc(Cl)s2)=C(c2nnn[nH]2)C(=O)N1 [Example 5] :: 7.8
O=C1N[C@@](c2ccc(OCCCCCC(F)(F)F)cc2F)(C(F)(F)F)CC(c2cnn(C3CC3)c2)=C1c1nnn[nH]1 [Example 15] :: 14.5

A. Cc1ccc(C2=C(C#N)C(=O)N[C@@](c3ccc(OCCCCCC(F)(F)F)cc3)(C(F)(F)F)C2)s1 [Example 71]
B. O=C1N[C@@](c2ccc(CCCCC(F)(F)F)cc2F)(C(F)(F)F)CC(c2ccn(C3CCC3)n2)=C1c1nnn[nH]1 [Example 47]
C. CCc1cnc(C2=C(c3nnn[nH]3)C(=O)N[C@@](c3ccc(OCCCCCC(F)(F)F)cc3F)(C(F)(F)F)C2)s1 [Example 66]
Q. Rank ascending by IC50. Write out the labels following the order that was asked for.
A. C, B, A

P. O=C1N[C@@](c2ccc(OCCCC(F)(F)F)cc2)(C(F)(F)F)CC(c2ccn(CC3CCC3)n2)=C1c1nnn[nH]1 [Example 21]
Q. O=C1N[C@@](c2ccc(OCCCC(F)(F)F)cc2)(C(F)(F)F)CC(c2cc3ccccc3s2)=C1c1nnn[nH]1 [Example 7]
Q. Could you tell me which of P and Q has the lower IC50 reading? Your answer should be the label of the entry you select.
A. Q
(Q: 9 nM, P: 135 nM)

====

Target: human MGAT-2 (Homo sapiens (Human), UniProt Q3SYC2)
Assay: MGAT LCMS assay (h-MGAT LCMS)
Format: biochemical
Conditions: human MGAT2 membranes expressed in Sf9 cells; 100 μM 2-oleoylglycerol, 15 μM oleoyl-coenzyme A
pIC50: −log10 of the molar value.
measured_parameter: pIC50

In the examples that follow, each entry is paired with its recorded pIC50.
O=C1N[C@@](c2ccc(OCCCC(F)(F)F)cc2F)(C(F)(F)F)CC(c2ncc(C3CC3)s2)=C1c1nnn[nH]1 :: 8.85
O=C1N[C@@](c2ccc(OCCCC(F)(F)F)cc2F)(C(F)(F)F)CC(c2ccn(CC3CCC3)n2)=C1c1nnn[nH]1 :: 7.36
Cc1csc(C2=C(C#N)C(=O)N[C@@](c3ccc(OCCCC(F)(F)F)cc3)(C(F)(F)F)C2)c1 :: 6.83
O=C1N[C@@](c2ccc(CCCCC(F)(F)F)cc2)(C(F)(F)F)CC(c2ccn(C3CC3)n2)=C1c1nnn[nH]1 :: 7.64

a. O=C1N[C@@](c2ccc(OCCCCCC(F)(F)F)cc2Cl)(C(F)(F)F)CC(c2ncc(C3CC3)s2)=C1c1nnn[nH]1
b. N#CC1=C(c2ccc(Cl)s2)C[C@](c2ccc(OCCCC(F)(F)F)cc2)(C(F)(F)F)NC1=O
c. CCc1cnc(C2=C(c3nnn[nH]3)C(=O)N[C@@](c3ccc(OCCCC(F)(F)F)cc3F)(C(F)(F)F)C2)s1
d. COc1ccc(NC(=O)C2=C(c3ccn(C4CC4)n3)C[C@](c3ccc(OCCCC(F)(F)F)cc3)(C(F)(F)F)NC2=O)cc1
Q. Rank ascending by pIC50. Write out the labels following the order that was asked for.
A. b, d, c, a
(b: 7.52, d: 8.38, c: 8.68, a: 9.15)

====

Target: human MGAT-2 (Homo sapiens (Human))
Assay: MGAT LCMS assay (h-MGAT LCMS)
Format: biochemical
Details: human MGAT2 membranes expressed in Sf9 cells; 100 μM 2-oleoylglycerol, 15 μM oleoyl-coenzyme A
measured_parameter: IC50 (nM)

CC(C)n1ccc(C2=C(c3nnn[nH]3)C(=O)N[C@@](c3ccc(CCCCC(F)(F)F)cc3F)(C(F)(F)F)C2)n1 :: 11.4

1. COc1ccc(C2=C(C#N)C(=O)N[C@@](c3ccc(OCCCCCC(F)(F)F)cc3)(C(F)(F)F)C2)cn1
2. O=C1N[C@@](c2ccc(OCCCC(F)(F)F)cc2F)(C(F)(F)F)CC(c2ccn(C3CCC3)n2)=C1c1nnn[nH]1
Q. Could you tell me which of 1 and 2 has the lower IC50 reading? Your answer should be the label of the entry you select.
A. 2
(2: 6.7 nM, 1: 10.3 nM)
